system: HCT-116; assay: Cytotoxicity against human HCT-116 cells assessed as cell growth inhibition incubated for 72 hrs by MTT assay; format: functional, cell-based; conditions: HCT-116, 72 h
pIC50: −log10 of the molar value.

cpdSmiles: O=c1c2ccccc2nc2n1Cc1c-2nc2ccccc2c1C(F)(F)F
pIC50: 4.77

---

test: Cytotoxicity against human U-937/CR cells assessed as cell growth inhibition incubated for 3 to 4 days by MTT assay; type: functional, cell-based
propertyLabel: IC50 (nM)

cpdSmiles: COc1cc2ccc3c4cc5c(cc4ncc3c2cc1OC)OCO5
propertyLabel: IC50
uom: nM
valueMeasured: 50

---

system: P388; test: Cytotoxicity against mouse P388 cells assessed as cell growth inhibition incubated for 3 to 4 days by MTT assay; format: functional, cell-based

cpdSmiles: COc1cc2ccc3c4cc5c(cc4ncc3c2cc1OC)OCO5
systemUnderTest: P388
IC50 [nM]: 190
